target: COUP transcription factor 2 (Homo sapiens) (UniProt P24468); test: COUP-TFII reporter suppression in human cells – cell-based, luciferase reporter, HEK293T, luminescence, primary screen (AID 686940); conditions: HEK293T NGFI-A luciferase reporter, at 8.6 µM;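 further: cells cotransfected with COUP-TFII expression vector driving the NGFI-A reporter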
Sequence (P24468 whole entry, looked up): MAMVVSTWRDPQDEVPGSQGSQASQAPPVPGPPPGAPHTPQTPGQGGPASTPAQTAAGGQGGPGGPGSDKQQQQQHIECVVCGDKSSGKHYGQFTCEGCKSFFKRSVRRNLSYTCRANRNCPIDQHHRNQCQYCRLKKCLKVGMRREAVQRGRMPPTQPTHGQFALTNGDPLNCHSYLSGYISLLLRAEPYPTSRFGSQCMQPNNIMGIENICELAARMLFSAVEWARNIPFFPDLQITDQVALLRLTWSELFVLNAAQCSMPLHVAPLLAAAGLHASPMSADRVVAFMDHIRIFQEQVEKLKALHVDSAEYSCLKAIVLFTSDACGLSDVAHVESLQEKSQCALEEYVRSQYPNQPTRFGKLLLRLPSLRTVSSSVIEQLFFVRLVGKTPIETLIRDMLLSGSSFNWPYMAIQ
Among all 370,000 compounds or so, about 2,600 (0.7%) were called active.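 How the source made its calls: active means inhibition above a per-plate cutoff, mean inhibition of test wells between control levels plus 3 SD (cut at about 38% in these data); inactive means the rest.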 Many of the other results were omitted from the sample, so actives are more common in it than they were.
Outcome codes: active, inactive

compound: COC(=O)[C@]12C[C@H](CC(=O)NCc3cccc4ccccc34)C(=O)N(CCc3ccc(OC)c(OC)c3)C1=C[C@H](C1CCCC1)O[C@@H]2C
subject_of_test: COUP transcription factor 2 (Homo sapiens) (UniProt P24468)
group_label: inactive
//
compound: O=C(CCS(=O)(=O)c1ccccc1)Nc1ccc(Cl)c(Cl)c1
subject_of_test: COUP transcription factor 2 (Homo sapiens) (UniProt P24468)
group_label: inactive
//
compound: O=C(CC(O)(C(F)(F)F)C(F)(F)F)Nc1ccc(Cl)c(Cl)c1
subject_of_test: COUP transcription factor 2 (Homo sapiens) (UniProt P24468)
group_label: active
//
compound: O=C(Nc1ccc(Br)cc1)OCCN1C(=O)CCC12CCC(c1ccccc1)CC2 (stereo not given)
subject_of_test: COUP transcription factor 2 (Homo sapiens) (UniProt P24468)
group_label: inactive
//
compound: COC(=O)c1cccc(Cn2ccc3ccc(-c4ccc5ccn(C(=O)C6CCCCC6)c5c4)cc32)c1
subject_of_test: COUP transcription factor 2 (Homo sapiens) (UniProt P24468)
group_label: inactive

Origin of the recorded values: PubChem BioAssay AID686940
